Measured Target: HSF2
Assay Text: pooled miR-30 sensor sort-seq; sequence = guide strand; note: reference of the scale not given here
Condition Set: shRNA
Measurement Type: sensor-assay potency score (higher = more potent)
One number for each entry.

Before answering, review these 5 worked examples.
>  <Residue Codes>
TTGAACATGAATAAACGTCTTT

>  <Data Value>
0.178

$$$$
>  <Residue Codes>
TAAACTGGACAATCTTTCGAAT

>  <Data Value>
-0.594

$$$$
>  <Residue Codes>
TTAGTTTCTGGAATAACTGGGA

>  <Data Value>
-0.0464

$$$$
>  <Residue Codes>
TTCATTGTCATCTTCAACGATG

>  <Data Value>
-0.744

$$$$
>  <Residue Codes>
TAACTTGTTGCTGTTGTGCATG

>  <Data Value>
-0.847

$$$$

Consider the following items and state reported sensor-assay potency score (higher = more potent) for each.
1. TAAACCTTCAGTCCTACTGTGT
2. TTTGAAGATGAAACCTTCCTTT
3. TACATCTGCGTAACTATGCAGC

[-0.618, 0.173, -0.31]

====

Measured Target: SLC5A9
Assay Text: pooled miR-30 sensor sort-seq; sequence = guide strand
Condition Set: shRNA
Rule: sensor-assay potency score (higher = more potent) of -0.9 or more gives true (1); anything lower gives false (0).

Known results for sequences:
>  <Residue Codes>
TTAGAGAGTAGGAAGAGGCAGA

>  <Group Label>
true (1)

$$$$
>  <Residue Codes>
TGTTGGAACATCCCACTCGGGC

>  <Group Label>
false (0)

$$$$
>  <Residue Codes>
TTGTTTAATCTGTCTACACTGA

>  <Group Label>
true (1)

$$$$
>  <Residue Codes>
TGGTCTGTGCACCAACACCAGG

>  <Group Label>
false (0)

$$$$
>  <Residue Codes>
TTGTCTAAGAGCTTTCTGCCCA

>  <Group Label>
true (1)

$$$$

In the following, a different sequence is considered.
Kindly determine if sensor-assay potency score (higher = more potent) recorded for AGGAACACCACAAACACTCTGC is above or exactly -0.9. false (0)

====

Measured Target: UTS2D
Assay Text: pooled miR-30 sensor sort-seq; sequence = guide strand
Condition Set: shRNA
Rule: sensor-assay potency score (higher = more potent) of -0.6 or more gives criterion met; anything lower gives criterion not met.

>  <Residue Codes>
TCTTTTAGCTTTTCCAGCTGGT

>  <Measured Target>
UTS2D

>  <Group Label>
criterion met

$$$$
>  <Residue Codes>
TTATTCAGTAGAGCCAGCAATA

>  <Measured Target>
UTS2D

>  <Group Label>
criterion not met

$$$$
>  <Residue Codes>
AAAGTTAGGAGTCCAAAGCAAA

>  <Measured Target>
UTS2D

>  <Group Label>
criterion not met

$$$$
>  <Residue Codes>
TAGGAGTCCAAAGCAAACAGTG

>  <Measured Target>
UTS2D

>  <Group Label>
criterion met

$$$$

In the following, a different sequence is considered.
Kindly determine if sensor-assay potency score (higher = more potent) recorded for TTGTATATTTTTTATCTGGAAA is above or exactly -0.6. criterion not met

====

Measured Target: SUN1
Assay Text: pooled miR-30 sensor sort-seq; sequence = guide strand
Condition Set: shRNA
Consider the following sequences; for each one, report its sensor-assay potency score (higher = more potent).

Before answering, review these 3 worked examples.
>  <Residue Codes>
TTTGTTGTTCTGGCCGCTCGGT

>  <Data Value>
-0.815

$$$$
>  <Residue Codes>
TTCTTCAGGGAGACAGCGCTGC

>  <Data Value>
-0.739

$$$$
>  <Residue Codes>
TTGGAAAGCTGTGTCGTCGGGT

>  <Data Value>
0.562

$$$$

Consider the following items and state reported sensor-assay potency score (higher = more potent) for each.
1. TTGTTTGTGCTTCTGCGCTGTT
2. TTCAGGGAGACAGCGCTGCTGG
3. TTTTGGTTTCGTAAGTTTCAGA
4. TTTTCTAATCCATAGACGGCGA

1: -0.561; 2: -1.01; 3: -0.848; 4: -0.893

====

Measured Target: SIX1
Assay Text: pooled miR-30 sensor sort-seq; sequence = guide strand
Condition Set: shRNA
Rule: sensor-assay potency score (higher = more potent) of -0.2 or more gives T; anything lower gives F.

Known results for sequences:
>  <Residue Codes>
TTGAGTACGCTCTCGTTCTTGT

>  <Group Label>
T

$$$$
>  <Residue Codes>
TACAAGTGTCCCTAGTCGCTGC

>  <Group Label>
T

$$$$
>  <Residue Codes>
TTCTATTTACAAGTGTCCCTAG

>  <Group Label>
T

$$$$
>  <Residue Codes>
ATATTTGTGAAAGTCCACCATT

>  <Group Label>
F

$$$$
>  <Residue Codes>
TTTATGCGCAAACAACTCCAGA

>  <Group Label>
F

$$$$

Kindly determine if sensor-assay potency score (higher = more potent) recorded for TTTCTATTTACAAGTGTCCCTA is above or exactly -0.2. F

====

Consider the following sequences; for each one, report its sensor-assay potency score (higher = more potent).
Measured Target: ENPP7
Assay Text: pooled miR-30 sensor sort-seq; sequence = guide strand
Condition Set: shRNA
One number for each entry.

Before answering, review these 6 worked examples.
>  <Residue Codes>
TCGCTCTCCACTCCGTCTCATT

>  <Data Value>
-1.59

$$$$
>  <Residue Codes>
TTGAACTGGACGTTAATTCTCC

>  <Data Value>
-0.264

$$$$
>  <Residue Codes>
TTGTAGACGTGGAGCTTGGGGT

>  <Data Value>
-0.738

$$$$
>  <Residue Codes>
TAGTCCAGGAGCTCAAACTCGA

>  <Data Value>
-0.814

$$$$
>  <Residue Codes>
TTGCGCGCGATGCTCTCCCGGA

>  <Data Value>
-1.29

$$$$
>  <Residue Codes>
TAGGGCAGCTTCACCTTGCTGG

>  <Data Value>
-0.078

$$$$

Here's the next entry for you.
Which sensor-assay potency score (higher = more potent) value is on record for TTCTTGTAGACGTGGAGCTTGG ? -0.97

====

Measured Target: DTNBP1
Assay Text: pooled miR-30 sensor sort-seq; sequence = guide strand
Condition Set: shRNA
Measurement Type: sensor-assay potency score (higher = more potent)
Give bare numbers.

>  <Residue Codes>
TCACTTAAAGTCTTCAGCCCGG

>  <Data Value>
-0.801

$$$$
>  <Residue Codes>
TAAGTCTTCCAGATGCAGCAGG

>  <Data Value>
-0.317

$$$$

Consider the following items and state reported sensor-assay potency score (higher = more potent) for each.
1. TTTCTTGTAATTCTCCAGTTGC
2. ATTTTTCTTGTAATTCTCCAGT

1. -0.554
2. -0.545

====

Measured Target: PDE8B
Assay Text: pooled miR-30 sensor sort-seq; sequence = guide strand
Condition Set: shRNA
Measurement Type: sensor-assay potency score (higher = more potent)
Answers are plain numbers.

>  <Residue Codes>
TACAATAATTTCATGATGCTTA

>  <Measured Target>
PDE8B

>  <Data Value>
-0.231

$$$$

Consider the following items and state reported sensor-assay potency score (higher = more potent) for each.
1. TTAGTAAACACATACTCGTTTC
2. TTCATCTTTGGTACCCAGCTGA
3. TAAACACATACTCGTTTCCTGA
4. TTAAAAACTCACATACTCCAAA

-0.767
-0.0849
-0.83
-0.433

Which sensor-assay potency score (higher = more potent) value is on record for ATCGCTCTGACTATCTTCCTTT ? -0.16

====

Consider the following sequences; for each one, report its sensor-assay potency score (higher = more potent).
Measured Target: ANGPTL1
Assay Text: pooled miR-30 sensor sort-seq; sequence = guide strand
Condition Set: shRNA
Answers are plain numbers.

Consider the following items and state reported sensor-assay potency score (higher = more potent) for each.
1. TATAGAGTTGAGTAACACGAGA
2. TTGCAGAACATCTATCTCCCGC
3. TTGATTGCTAAGCATATAGATA
4. TCCATCTACATCCACCACCAGT
5. ATAACTTGTAATTATCTTGATT
6. TTTAATGGTACTTGCATCTTGC

1: -1.16; 2: 0.289; 3: -1.25; 4: -1.83; 5: -0.722; 6: 0.613

====

Consider the following sequences; for each one, report its sensor-assay potency score (higher = more potent).
Measured Target: PRSS35
Assay Text: pooled miR-30 sensor sort-seq; sequence = guide strand
Condition Set: shRNA
One number for each entry.

>  <Residue Codes>
TTGGATTCGTCGGACACACTGC

>  <Data Value>
-0.732

$$$$

Consider the following items and state reported sensor-assay potency score (higher = more potent) for each.
1. TAATACACAACCAGCATCCTAT
2. TACACCTGTCTCTTTCTCCTAA
3. TAGAACAAACTATTTCTCCCAT
4. TTACCATCATCTTAGCATCTGC

[-0.461, -0.12, 0.0739, -0.234]
